B1: tRNA (parent)
chain: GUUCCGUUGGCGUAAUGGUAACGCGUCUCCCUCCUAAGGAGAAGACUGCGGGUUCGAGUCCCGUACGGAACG

# Variants of: B1
# assay_remarks: yeast fitness, log relative to wild type (ln ratio); higher = fitter; tRNA-Arg(CCU), competitive growth, 37 C, 1 M NaCl
property: yeast fitness (ln)
Answers are plain numbers.

These solved cases illustrate the format of a correct answer.
[[record]]
sequence_text = "AGUCCGUUGGCGUAAUGGUAACGCGUUUCCCUCCUAAGGAGAAGAUUGCGGGUUCGAGUCCCGUACGGAAUG [G1A U2G C27U C46U C71U]"
property = "yeast fitness (ln)"
readout_number = -0.159

[[record]]
sequence_text = "ACUCCUUUGGCGUAAUGGUAACGCGUUUCCCUCCUAAGGAGAAGACUGCGGGUUCGAGUCCCGUAAGGAGCG [G1A U2C G6U C27U C66A A70G]"
property = "yeast fitness (ln)"
readout_number = -0.141

[[record]]
sequence_text = "GUUCCGUUGGCGUAAUGGUAACGCGUUUCCCUCCUAAGGAGACGAUUGCGGGUUCGAGUCCCGUACGGGUUG [C27U A43C C46U A69G A70U C71U]"
property = "yeast fitness (ln)"
readout_number = -0.317

[[record]]
sequence_text = "AGUCCUUUGGCGUAAUGGUAACGCGUUUCCCUCCUAAGGAGAAGAUUGCGGGUUCGAGUCCCGUACGGAGUG [G1A U2G G6U C27U C46U A70G C71U]"
property = "yeast fitness (ln)"
readout_number = -0.368

[[record]]
sequence_text = "AUUCCUUUGGCGUAAUGGUAACGCGUCUCCCUCCUAAGGAGAAGACUGCGGGUUCGAGUCCCGUAUGGGAUG [G1A G6U C66U A69G C71U]"
property = "yeast fitness (ln)"
readout_number = -0.312

[[record]]
sequence_text = "GGUCCGUUGGCGUAAUGGUAACGCGUCUCCCUCCUAAGGAGAAGAUUGCGGGUUCGAGUCCCGUACGGAUCG [U2G C46U A70U]"
property = "yeast fitness (ln)"
readout_number = -0.00122

[[record]]
sequence_text = "GCUCCUUUGGCGUAAUGGUAACGCGUUUCCCUCCUAAGGAGAAGACUGCGGGUUCGAGUCCCGUACGGGGUG [U2C G6U C27U A69G A70G C71U]"
property = "yeast fitness (ln)"
readout_number = -0.157

[[record]]
sequence_text = "GUUCCGUUGGCGUAAUGGUAACGCGUUUCCCUCCUAAGGAGACGAUUGCGGGUUCGAGUCCCGUAAGGAUUG [C27U A43C C46U C66A A70U C71U]"
property = "yeast fitness (ln)"
readout_number = -0.301

[[record]]
sequence_text = "GCUCCGUUGGCGUAAUGGUAACGCGUUUCCCUCCUAAGGAGAAGAUUGCGGGUUCGAGUCCCGUACGGAGUG [U2C C27U C46U A70G C71U]"
property = "yeast fitness (ln)"
readout_number = -0.0224

[[record]]
sequence_text = "GUUCCAUUGGCGUAAUGGUAACGCGUCUCCCUCCUAAGGAGACGACUGCGGGUUCGAGUCCCGUAAGGAUCG [G6A A43C C66A A70U]"
property = "yeast fitness (ln)"
readout_number = -0.188


Batch request: yeast fitness (ln) per item, same order as input.
1. GCUCCUUUGGCGUAAUGGUAACGCGUUUCCCUCCUAAGGAGAAGAUUGCGGGUUCGAGUCCCGUAAGGAAUG [U2C G6U C27U C46U C66A C71U]
2. AGUCCGUUGGCGUAAUGGUAACGCGUUUCCCUCCUAAGGAGAAGAUUGCGGGUUCGAGUCCCGUAUGGAUUG [G1A U2G C27U C46U C66U A70U C71U]
3. GUUCCUUUGGCGUAAUGGUAACGCGUUUCCCUCCUAAGGAGACGAUUGCGGGUUCGAGUCCCGUACGGAACG [G6U C27U A43C C46U]
4. ACUCCGUUGGCGUAAUGGUAACGCGUCUCCCUCCUAAGGAGACGACUGCGGGUUCGAGUCCCGUAUGGGUUG [G1A U2C A43C C66U A69G A70U C71U]
5. AUUCCUUUGGCGUAAUGGUAACGCGUCUCCCUCCUAAGGAGACGACUGCGGGUUCGAGUCCCGUACGGAAUG [G1A G6U A43C C71U]
6. ACUCCUUUGGCGUAAUGGUAACGCGUUUCCCUCCUAAGGAGACGAUUGCGGGUUCGAGUCCCGUAAGGAGCG [G1A U2C G6U C27U A43C C46U C66A A70G]

1. -0.0782
2. -0.434
3. -0.155
4. -0.279
5. -0.101
6. -0.15
